- System: lung cancer A549
- ASSAY: Cytotoxicity, MTT method
- CONDITIONS: read-out: Cytotoxicity, half maximal inhibitory concentration (IC50); A549, MTT
- Excerpt: […]
PROPERTY MEASURED: pIC50
pIC50 here: minus log base 10 of the concentration, concentration in moles per litre.

**Q:** Query: pIC50; subject: C/C(=C\c1csc(C)n1)[C@@H]1C[C@@H]2O[C@]2(C)CCC[C@H](C)[C@H](O)[C@@H](C)C(=O)C(C)(C)[C@@H](O)CC(=O)O1 [epothilon B, reference compound]
**A:** 10.05

----------
- ASSAY: Cytotoxicity, MTT method
- CONDITIONS: human, MCF-7 breast cancer cells
PROPERTY MEASURED: IC50 (nM)
Quick reminder: number only, in nM, skip the unit.

Solved entries:
> print(dat)
                                   molecule  property.measured  measured.result
1  COC(=O)[C@]12Oc3c(c(O)cc4c3[C@@H]3C=C[C@]5(C4)C(=C(O)c4c(O)cc(C)cc4[C@@H]5O)C3=O)C(=O)C1=C(O)CC[C@@H]2O               IC50              100
2  CCCC(=O)O[C@H]1c2cc(C)cc(O)c2C(=O)C2=C(O)[C@H]3C=C[C@]21Cc1cc(O)c2c(c13)O[C@@](C(=O)OC)([C@@H](O)CCC(=O)O)CC2=O               IC50             1030
3  CCCC(=O)O[C@H]1c2cc(C)cc(O)c2C(=O)C2=C(O)[C@H]3C=C[C@]21Cc1cc(O)c2c(c13)O[C@]1(C(=O)OC)C(=C(O)CC[C@@H]1O)C2=O               IC50               40

**Q:** Query: IC50; subject: CCCC(=O)O[C@H]1c2cc(C)cc(O)c2C(=O)C2=C(O)[C@H]3C=C[C@]21Cc1cc(O)c2c(c13)O[C@@]1(C(=O)OC)C(=C(O)CC[C@@H]1O)C2=O
**A:** 40

**Q:** Query: IC50; subject: CCCC(=O)O[C@H]1c2cc(C)cc(O)c2C(=O)C2=C(O)[C@H]3C=C[C@]21Cc1cc(O)c2c(c13)O[C@@](C(=O)OC)([C@@H]1CCC(=O)O1)CC2=O
**A:** 1100

----------
- Tested on: Pichia anomala
- ASSAY: MIC, antifungal test
- Format: cell-based
- Parameters: key: –: no inhibition observed under test conditions
PROPERTY MEASURED: Minimum inhibitory concentration (MIC)

Solved entries:
COMPOUND	MEASURED RESULT
CCCC(=O)O[C@H]1c2cc(C)cc(O)c2C(=O)C2=C(O)[C@H]3C=C[C@]21Cc1cc2c(c(O)c13)C(=O)C1=C(O)CC[C@H](O)[C@@]1(C(=O)OC)O2	–
C[C@@H]1[C@H](O)[C@@H](C)/C=C/C=C/CC/C=C/C=C/C=C/C=C/C(O[C@H]2O[C@H](C)[C@@H](O)[C@H](N)[C@@H]2O)CC2O[C@](O)(CC(O)C(O)CCC(O)CC(O)CC(O)CC(=O)O[C@H]1C)CC(O)C2C(=O)O (stereo partly drawn) [nystatin, reference compound]	33.30 ^1 µg/mL
CCCC(=O)O[C@H]1c2cc(C)cc(O)c2C(=O)C2=C(O)[C@H]3C=C[C@]21Cc1cc(O)c2c(c13)O[C@@](C(=O)OC)([C@@H]1CCC(=O)O1)CC2=O	–
COC(=O)[C@]12Oc3c(c(O)cc4c3[C@@H]3C=C[C@]5(C4)C(=C3O)C(=O)c3c(O)cc(C)cc3[C@@H]5OC(C)=O)C(=O)C1=C(O)CC[C@@H]2O	–
COC(=O)[C@]12Oc3c(c(O)cc4c3[C@@H]3C=C[C@]5(C4)C(=C(O)c4c(O)cc(C)cc4[C@@H]5O)C3=O)C(=O)C1=C(O)CC[C@@H]2O	–

**Q:** Query: Minimum inhibitory concentration (MIC); subject: CCCC(=O)O[C@H]1c2cc(C)cc(O)c2C(=O)C2=C(O)[C@H]3C=C[C@]21Cc1cc(O)c2c(c13)O[C@]1(C(=O)OC)C(=C(O)CC[C@@H]1O)C2=O
**A:** 8.30 µg/mL

**Q:** Query: Minimum inhibitory concentration (MIC); subject: CCCC(=O)O[C@H]1c2cc(C)cc(O)c2C(=O)C2=C(O)[C@H]3C=C[C@]21Cc1cc(O)c2c(c13)O[C@@](C(=O)OC)([C@@H](O)CCC(=O)O)CC2=O
**A:** –

**Q:** Query: Minimum inhibitory concentration (MIC); subject: CCCC(=O)O[C@H]1c2cc(C)cc(O)c2C(=O)C2=C(O)[C@H]3C=C[C@]21Cc1cc(O)c2c(c13)O[C@@]1(C(=O)OC)C(=C(O)CC[C@@H]1O)C2=O
**A:** –

**Q:** Query: Minimum inhibitory concentration (MIC); subject: CCCC(=O)O[C@H]1c2cc(C)cc(O)c2C(=O)C2=C(O)[C@H]3C=C[C@]21Cc1cc(O)c2c(c13)O[C@@]1(C(=O)OC)C(=C(O)[C@@H](O)C[C@@H]1O)C2=O
**A:** –
